Data origin: PubChem BioAssay

Experiment: growth inhibition, MDA-MB-436, cell-based, BGB or cisplatin combos, synergistic combos for chromothripsis tumors (AID 1671458);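 note: cells exposed for 96 hours; 0% = vehicle DMSO and 100% = killing by high DMSO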
Settings: MDA-MB-436 breast carcinoma growth inhibition, drug combinations; measured here: cisplatin combination; at 0.5 µM; stronger effect = higher value
inhibition reference

[
  {
    "compound": "N#Cc1ccc(OC2CCC(NC(=O)CCSc3nc4ccccc4c(=O)[nH]3)CC2)cc1 (stereo not drawn)",
    "unit text": "%",
    "inhibition": 1.31
  },
  {
    "compound": "C[C@H](NC(=O)c1ccccc1N=Cc1c(O)ccc2ccccc12)c1ccccc1",
    "unit text": "%",
    "inhibition": -10.5
  },
  {
    "compound": "C[C@@H]1COCCN1c1cc(C2(S(C)(=O)=O)CC2)nc(-c2cccc3[nH]ccc23)n1",
    "unit text": "%",
    "inhibition": 30.1
  },
  {
    "compound": "O=C1C(=Cc2cccnc2)C(=O)c2ccccc21",
    "unit text": "%",
    "inhibition": -27.6
  },
  {
    "compound": "C=C1CCC(O)CC1=CC=C1CCCC2(C)C1CCC2C(C)C=CC(C)C(C)C (stereo not drawn)",
    "unit text": "%",
    "inhibition": -15.7
  },
  {
    "compound": "CC(C)(O)[C@H]1CC[C@@](C)(C2[C@@H](O)C[C@@]3(C)[C@@H]4C[C@H](O)C5C(C)(C)[C@@H](O)CCC56CC46CC[C@]23C)O1 (stereo partly drawn)",
    "unit text": "%",
    "inhibition": -27.4
  },
  {
    "compound": "CC(C)(C#N)c1ccc(N2C(=O)OCc3cnc4ccc(-c5cnc6ccccc6c5)cc4c32)cc1",
    "unit text": "%",
    "inhibition": -29.7
  },
  {
    "compound": "CC1CN(c2c(F)c(N)c3c(=O)c(C(=O)O)cn(C4CC4)c3c2F)CC(C)N1 (stereo not drawn)",
    "unit text": "%",
    "inhibition": -22.6
  }
]
